src = patent US20070275911A1

systemTested: human AR (Homo sapiens, UniProt P10275)
Construct: expressed in transfected cells; host or cells: PC3/AR cells (gift of Dr. Kerry Burnstein, University of Miami); cytosolic fraction of sonicated lysate
experimentDescription: biochemical
Assay type: binding
Entries and their RBA values follow.
Write no unit; give the number alone.

CC1(C)NC(=O)N(c2ccc(C#N)c(C(F)(F)F)c2)C1=O [2f] ... 150
CC1(C)C(=O)N(c2ccc(C#N)c(C(F)(F)F)c2)C(=O)N1CCOCCN1CCN(CCOCc2ccc(O)c(C(N)=O)c2)CC1 [12b] ... 3

Okay, next one:
Notebook: COc1cccc2c1C(=O)c1c(O)c3c(c(O)c1C2=O)C[C@@](O)(C(=O)CO)C[C@@H]3OC1C[C@H](NCNC(=O)c2cc(COCC#CCN3C(=O)N(c4ccc(C#N)c(C(F)(F)F)c4)C(=O)C3(C)C)ccc2O)[C@H](O)[C@H](C)O1 (stereo partly shown) [compound 13] , RBA read as 10

====

systemTested: human AR (Homo sapiens)
Construct: expressed in transfected cells; host or cells: PC3/AR cells (gift of Dr. Kerry Burnstein, University of Miami); cytosolic fraction of sonicated lysate
experimentDescription: biochemical
Type: binding
studyConditions: vs 1.0 nM 3H-Mibolerone, PC3/AR cell lysate, 4° C., 30 min (Table 3, Example 2 numbering)
Entries and their IC50 values follow.
Only the number, expressed in nM, is required.

Below: 3 compounds and their reported IC50.
CC1(C)C(=O)N(c2ccc(C#N)c(C(F)(F)F)c2)C(=O)N1CCOCCN1CCN(CCOCc2ccc(O)c(C(N)=O)c2)CC1 [12b] ... 346
CC1(C)C(=O)N(c2ccc(C#N)c(C(F)(F)F)c2)C(=O)N1CC#CCOCc1ccc(O)c(C(N)=O)c1 ... 49
CC1(C)C(=O)N(c2ccc(C#N)c(C(F)(F)F)c2)C(=O)N1CCOCCOCc1ccc(O)c(C(N)=O)c1 ... 77

Okay, next one:
Notebook: `CC1(C)C(=O)N(c2ccc(C#N)c(C(F)(F)F)c2)C(=O)N1CCOCCOCCOCc1ccc(O)c(C(N)=O)c1` , IC50 read as 332

====

systemTested: human AR (Homo sapiens)
Construct: expressed in transfected cells; host or cells: PC3/AR cells (gift of Dr. Kerry Burnstein, University of Miami); cytosolic fraction of sonicated lysate
Sequence (P10275 1-920): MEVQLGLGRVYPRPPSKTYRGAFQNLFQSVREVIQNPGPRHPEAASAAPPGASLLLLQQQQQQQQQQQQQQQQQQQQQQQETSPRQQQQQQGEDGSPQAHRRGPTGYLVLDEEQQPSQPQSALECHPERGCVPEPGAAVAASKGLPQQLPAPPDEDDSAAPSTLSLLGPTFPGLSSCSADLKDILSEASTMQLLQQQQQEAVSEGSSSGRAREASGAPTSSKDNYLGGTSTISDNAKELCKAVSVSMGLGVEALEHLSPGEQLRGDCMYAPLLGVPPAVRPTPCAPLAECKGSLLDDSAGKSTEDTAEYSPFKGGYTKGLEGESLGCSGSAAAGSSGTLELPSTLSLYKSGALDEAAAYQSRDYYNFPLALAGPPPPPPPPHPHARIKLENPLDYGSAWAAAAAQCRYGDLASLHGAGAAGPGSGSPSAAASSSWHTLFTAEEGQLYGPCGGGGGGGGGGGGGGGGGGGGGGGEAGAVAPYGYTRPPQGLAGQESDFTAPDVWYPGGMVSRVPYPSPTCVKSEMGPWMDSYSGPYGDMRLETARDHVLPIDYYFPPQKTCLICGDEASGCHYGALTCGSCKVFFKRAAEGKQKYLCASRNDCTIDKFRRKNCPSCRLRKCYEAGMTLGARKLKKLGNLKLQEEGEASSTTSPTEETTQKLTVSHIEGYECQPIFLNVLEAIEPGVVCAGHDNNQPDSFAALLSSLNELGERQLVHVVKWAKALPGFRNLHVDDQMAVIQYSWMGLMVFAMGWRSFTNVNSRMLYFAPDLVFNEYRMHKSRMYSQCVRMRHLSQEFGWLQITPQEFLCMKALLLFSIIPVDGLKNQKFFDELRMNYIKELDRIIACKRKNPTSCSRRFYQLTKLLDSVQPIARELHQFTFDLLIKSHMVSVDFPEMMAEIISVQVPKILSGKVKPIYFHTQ
experimentDescription: biochemical
Assay type: binding
studyConditions: relative binding affinity (Table 4, Example 3 numbering)
attributeMeasured: RBA
Write no unit; give the number alone.

Notebook: CC1(C)C(=O)N(c2ccc(C#N)c(C(F)(F)F)c2)C(=O)N1CCOCCN1CCN(CCOCc2ccc(O)c(C(N)=O)c2)CC1 [12b] , RBA read as 3

Notebook: COc1cccc2c1C(=O)c1c(O)c3c(c(O)c1C2=O)C[C@@](O)(C(=O)CO)C[C@@H]3OC1C[C@H](NCNC(=O)c2cc(COCC#CCN3C(=O)N(c4ccc(C#N)c(C(F)(F)F)c4)C(=O)C3(C)C)ccc2O)[C@H](O)[C@H](C)O1 (stereo partly shown) , RBA read as 10

Notebook: CCCC(=O)OCOc1ccc(COCC#CCN2C(=O)N(c3ccc(C#N)c(C(F)(F)F)c3)C(=O)C2(C)C)cc1C(=O)NCNC1CC(OC2CC(O)(C(=O)CO)Cc3c(O)c4c(c(O)c32)C(=O)c2c(OC)cccc2C4=O)OC(C)C1O (stereo not shown) , RBA read as 14

====

systemTested: estrogen receptor (Homo sapiens, UniProt P03372)
Construct: endogenous in cells; host or cells: MCF-7 cells (ATCC); 225,000 g supernatant of sonicated lysate
Sequence (P03372 whole entry): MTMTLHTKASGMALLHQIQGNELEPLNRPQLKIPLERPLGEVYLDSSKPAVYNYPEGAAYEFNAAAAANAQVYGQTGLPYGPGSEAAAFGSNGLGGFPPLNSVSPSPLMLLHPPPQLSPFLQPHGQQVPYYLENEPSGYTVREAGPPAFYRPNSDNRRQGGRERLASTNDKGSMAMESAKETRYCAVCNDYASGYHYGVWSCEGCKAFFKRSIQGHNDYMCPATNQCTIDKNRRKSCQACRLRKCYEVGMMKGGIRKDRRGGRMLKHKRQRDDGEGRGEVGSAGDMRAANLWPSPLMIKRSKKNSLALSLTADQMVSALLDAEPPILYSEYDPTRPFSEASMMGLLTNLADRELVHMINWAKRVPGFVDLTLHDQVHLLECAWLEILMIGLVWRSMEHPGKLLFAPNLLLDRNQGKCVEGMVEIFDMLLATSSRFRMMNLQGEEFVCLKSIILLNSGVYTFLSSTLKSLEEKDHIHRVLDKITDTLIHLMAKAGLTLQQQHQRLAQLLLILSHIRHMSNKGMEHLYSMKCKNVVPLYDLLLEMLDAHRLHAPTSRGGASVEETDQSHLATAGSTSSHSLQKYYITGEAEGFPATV
experimentDescription: Estrogen receptor competitive binding assay (3H-E2, MCF-7 cell lysate)
studyConditions: relative to E/Z-4-OHT = 100
Entries and their RBA^OHT values follow.

Below: 3 molecules and their reported RBA^OHT.
CCC(=C(c1ccc(O)cc1)c1ccc(OCCN(C)CCOCCOCCON=Cc2ccc(O)c(C(N)=O)c2)cc1)c1ccccc1 [10c] ... 3.3
CCC(=C(c1ccc(O)cc1)c1ccc(OCCN(C)CCON=Cc2ccc(O)c(C(N)=O)c2)cc1)c1ccccc1 [10a] ... 1.7
CCC(=C(c1ccc(O)cc1)c1ccc(OCCN(C)CCOCCON=Cc2ccc(O)c(C(N)=O)c2)cc1)c1ccccc1 [10b] ... 3.3

Notebook: CC/C(=C(/c1ccc(O)cc1)c1ccc(OCCN(C)CCOCCOCCO/N=C/c2ccc(O)c(C(=O)NCN[C@H]3C[C@H](O[C@H]4C[C@](O)(C(=O)CO)Cc5c(O)c6c(c(O)c54)C(=O)c4c(OC)cccc4C6=O)O[C@@H](C)[C@H]3O)c2)cc1)c1ccccc1 [11c] , RBA^OHT read as 2.5

====

System: MCF-7/Adr cells
experimentDescription: Breast cancer cell growth inhibition, 4 h treatment
studyConditions: MCF-7/Adr (−/+/+), 4 h treatment
attributeMeasured: IC50 (nM)
Only the number, expressed in nM, is required.

CC/C(=C(/c1ccc(O)cc1)c1ccc(OCCN(C)CCOCCOCCO/N=C/c2ccc(O)c(C(=O)NCN[C@H]3C[C@H](O[C@H]4C[C@](O)(C(=O)CO)Cc5c(O)c6c(c(O)c54)C(=O)c4c(OC)cccc4C6=O)O[C@@H](C)[C@H]3O)c2)cc1)c1ccccc1 [11c] ... 60

Okay, next one:
Notebook: COc1cccc2c1C(=O)c1c(O)c3c(c(O)c1C2=O)C[C@@](O)(C(=O)CO)C[C@@H]3O[C@H]1C[C@H](NCNC(=O)c2ccccc2O)[C@H](O)[C@H](C)O1 [doxsaliform] , IC50 read as 2000

====

Test system: MDA-MB-435 cells
experimentDescription: Growth inhibition assay (Example 6)
Format: cell-based, human
studyConditions: Homo sapiens, MDA-MB-435; 4 h treatment; read-out: IC50 for inhibition of cell growth (nM), treatment time
attributeMeasured: IC50
Value and unit, in that order.

Notebook: COc1cccc2c1C(=O)c1c(O)c3c(c(O)c1C2=O)C[C@@](O)(C(=O)CO)C[C@@H]3O[C@H]1C[C@H](N)[C@H](O)[C@H](C)O1 [doxorubicin, reference compound] , IC50 read as 120 nM

====

Test system: MDA-MB-231
experimentDescription: Breast cancer cell growth inhibition, 4 h treatment
studyConditions: MDA-MB-231 (−/+/−), 4 h treatment
attributeMeasured: pIC50
# reply with the number alone; pIC50 is -log10 of concentration in mol/L

Notebook: COc1cccc2c1C(=O)c1c(O)c3c(c(O)c1C2=O)C[C@@](O)(C(=O)CO)C[C@@H]3O[C@H]1C[C@H](NCNC(=O)c2ccccc2O)[C@H](O)[C@H](C)O1 [doxsaliform] , pIC50 read as 7.10

====

Entries and their IC50 values follow.
systemTested: human AR (Homo sapiens, UniProt P10275)
Construct: expressed in transfected cells; host or cells: PC3/AR cells (gift of Dr. Kerry Burnstein, University of Miami); cytosolic fraction of sonicated lysate
Sequence (P10275 1-920): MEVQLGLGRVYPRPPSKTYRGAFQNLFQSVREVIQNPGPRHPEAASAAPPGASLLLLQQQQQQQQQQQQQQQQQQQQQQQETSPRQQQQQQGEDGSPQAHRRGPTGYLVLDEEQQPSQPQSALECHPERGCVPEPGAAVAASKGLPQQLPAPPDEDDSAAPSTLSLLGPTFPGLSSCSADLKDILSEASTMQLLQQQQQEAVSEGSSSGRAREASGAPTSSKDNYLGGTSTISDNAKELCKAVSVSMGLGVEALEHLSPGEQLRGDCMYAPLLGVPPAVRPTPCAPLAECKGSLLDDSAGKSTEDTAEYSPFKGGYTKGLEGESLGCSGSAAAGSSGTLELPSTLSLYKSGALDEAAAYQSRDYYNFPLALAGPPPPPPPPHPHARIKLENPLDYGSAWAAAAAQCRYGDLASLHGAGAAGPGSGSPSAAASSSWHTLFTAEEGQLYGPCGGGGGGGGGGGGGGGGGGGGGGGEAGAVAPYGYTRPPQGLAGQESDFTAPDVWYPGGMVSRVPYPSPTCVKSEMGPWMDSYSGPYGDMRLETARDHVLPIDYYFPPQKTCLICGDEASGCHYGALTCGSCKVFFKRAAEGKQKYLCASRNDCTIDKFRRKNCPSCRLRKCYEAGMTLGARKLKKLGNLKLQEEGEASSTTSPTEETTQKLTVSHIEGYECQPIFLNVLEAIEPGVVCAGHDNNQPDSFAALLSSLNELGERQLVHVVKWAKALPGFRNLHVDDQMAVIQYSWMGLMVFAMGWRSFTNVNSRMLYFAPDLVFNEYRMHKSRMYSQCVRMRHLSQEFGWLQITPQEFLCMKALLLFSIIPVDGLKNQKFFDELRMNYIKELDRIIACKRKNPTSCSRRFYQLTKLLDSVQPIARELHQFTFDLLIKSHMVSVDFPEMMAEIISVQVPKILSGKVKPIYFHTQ
experimentDescription: biochemical
Format: binding
studyConditions: vs 1.0 nM 3H-Mibolerone, PC3/AR cell lysate, 4° C. (Table 4, Example 3 numbering)
Only the number, expressed in nM, is required.

Below: 3 compounds and their reported IC50.
CC1(C)C(=O)N(c2ccc(C#N)c(C(F)(F)F)c2)C(=O)N1CCOCCOCCOCc1ccc(O)c(C(N)=O)c1 ... 332
CC1(C)C(=O)N(c2ccc(C#N)c(C(F)(F)F)c2)C(=O)N1CCOCCOCc1ccc(O)c(C(N)=O)c1 ... 77
CC1(C)C(=O)N(c2ccc(C#N)c(C(F)(F)F)c2)C(=O)N1CCOCCN1CCN(CCOCc2ccc(O)c(C(N)=O)c2)CC1 [12b] ... 346

Okay, next one:
Notebook: CCCC(=O)OCOc1ccc(COCC#CCN2C(=O)N(c3ccc(C#N)c(C(F)(F)F)c3)C(=O)C2(C)C)cc1C(=O)NCNC1CC(OC2CC(O)(C(=O)CO)Cc3c(O)c4c(c(O)c32)C(=O)c2c(OC)cccc2C4=O)OC(C)C1O (centres unmarked) , IC50 read as 63
